Cited source for all entries: patent US7691838B2

# Test system: DLD-1 cells (human colorectal cancer cells)
# PROTOCOL: MTS cell viability drug combination assay, combination index, DLD-1
# Type: cell-based
# CONDITION LABEL: 17-AAG Pre-Administration (17-AAG 24 h, then antimitotic 48 h), CI<1 synergism
ENDPOINT LABEL: CI value (combination index) of antimitotic with 17-AAG
Lab note: record just the number, no unit beside it.

Task item: What does the data say about its CI value (combination index) of antimitotic with 17-AAG? Entry: C/C1=C/C[C@@H](/C(C)=C/c2csc(C)n2)OC(=O)C[C@H](O)C(C)(C)C(=O)[C@H](C)[C@@H](O)[C@@H](C)CCC1
Reply: 0.84

Task item: What does the data say about its CI value (combination index) of antimitotic with 17-AAG? Entry: CC[C@]1(O)C[C@@H]2CN(CCc3c([nH]c4ccccc34)[C@@](C(=O)OC)(c3cc4c(cc3OC)N(C)[C@H]3[C@@](O)(C(=O)OC)[C@H](OC(C)=O)[C@]5(CC)C=CCN6CC[C@]43[C@@H]65)C2)C1
Reply: 0.92

Task item: What does the data say about its CI value (combination index) of antimitotic with 17-AAG? Entry: CC[C@]1(O)C[C@H]2CN(CCc3c([nH]c4ccccc34)[C@@](C(=O)OC)(c3cc4c(cc3OC)N(C=O)[C@H]3[C@@](O)(C(=O)OC)[C@H](OC(C)=O)[C@]5(CC)C=CCN6CC[C@]43[C@@H]65)C2)C1
Reply: 0.96

Task item: What does the data say about its CI value (combination index) of antimitotic with 17-AAG? Entry: CC(=O)O[C@@]12CO[C@@H]1C[C@H](O)[C@@]1(C)C(=O)[C@H](O)C3=C(C)[C@@H](OC(=O)[C@H](O)[C@@H](NC(=O)OC(C)(C)C)c4ccccc4)C[C@@](O)([C@@H](OC(=O)c4ccccc4)[C@H]21)C3(C)C
Reply: 0.79

Task item: What does the data say about its CI value (combination index) of antimitotic with 17-AAG? Entry: CC[C@]1(O)C[C@@H]2CN(CCc3c([nH]c4ccccc34)[C@@](C(=O)OC)(c3cc4c(cc3OC)N(C)[C@H]3[C@@](O)(C(N)=O)[C@H](O)[C@]5(CC)C=CCN6CC[C@]43[C@@H]65)C2)C1
Reply: 0.91
